Ref: PubChem BioAssay AID686978

- assay comment: qHTS for Inhibitors of human tyrosyl-DNA phosphodiesterase 1 (TDP1): qHTS in cells in absence of CPT; note: nearly all actives have a fitted effect of over 55% in size
- particulars: DT40 Tdp1-/- hTDP1 cells, no CPT, ATP luminescence, 48 h
Out of some 420,000 compounds screened, about 64,000 (15%) were called active. Another 27% or so got no clear call; they are omitted. Calls come from the whole dose curve; as a rule, active = well fitted inhibition curve with a large enough effect; inconclusive = small, poorly fitted or top-dose-only effect; inactive = flat fitted curve, though single readings scatter. Not all results are given here.
Your answer must be one of the following: true (active), false (inactive)

Below are worked cases with known answers.
O=C(NCCN1CCOC1=O)C1CCC(=O)N(CCc2ccc(Cl)cc2)C1 (stereo unspecified)
false
CCCCOc1ccc(C(C)(O)CCN2CCOCC2)cc1 (stereo unspecified)
false
CSCCC(=O)N1CCCC(CNC(=O)c2ccccc2Cl)C1 (stereo unspecified)
false
CCOC(=O)N1CCC(Nc2c(NCCCN3CCN(CC)CC3)c(=O)c2=O)CC1
false
COc1ccccc1-c1ccnc(-n2ncc(C(=O)NCCCN3CCOCC3)c2C)n1
false
CC1=NN(C(C)C)C(=O)C1
false
Cc1ccc(-n2ncc(C(=O)NC3CC3)c2C2CCN(C(=O)OC(C)(C)C)CC2)c(C)c1
false
Cc1ccc(Nc2cc(=O)n(C3CCCCC3)c(=O)[nH]2)cc1C
false
O=C(NCCCN1CCCCCC1)c1ccc(N2CCCC2=O)cc1
false
COc1ccc(NS(=O)(=O)c2cc(NC(=O)/C=C/c3cc(OC)c(OC)c(OC)c3)ccc2N2CCCCC2)cc1
false

Lookup: Per the records of this test, what outcome belongs to CC1CCC2(CC1)NC(=O)N(CC(=O)c1ccc3c(c1)OCO3)C2=O (stereo unspecified) ?
Found: false

Lookup: Per the records of this test, what outcome belongs to CCOC(=O)N1CCC(NC(=O)c2cnn3ccccc23)CC1 ?
Found: false

Lookup: Per the records of this test, what outcome belongs to COc1ccccc1N1CCN(CCCNC(=O)c2cnn(-c3ccccc3Cl)c2C2CCN(C(=O)OC(C)(C)C)CC2)CC1 ?
Found: true

Lookup: Per the records of this test, what outcome belongs to CCN1CCN(CCCNC(=O)c2cnn(-c3ccc(C)cc3C)c2C2CCN(C(=O)OC(C)(C)C)CC2)CC1 ?
Found: true

Lookup: Per the records of this test, what outcome belongs to CN1CN(C)c2ccc([N+](=O)[O-])c3cccc1c23 ?
Found: false

Lookup: Per the records of this test, what outcome belongs to Cc1ccc(CN2CCC(CNC(=O)c3cnn(-c4ccccc4Cl)c3C3CCN(C(=O)OC(C)(C)C)CC3)CC2)cc1 ?
Found: true

Lookup: Per the records of this test, what outcome belongs to O=C(Nc1ccc(Cl)cc1)c1ccsn1 ?
Found: false

Lookup: Per the records of this test, what outcome belongs to CC12CCC(C(=O)N(CCC#N)CCC#N)(CC1=O)C2(C)C (stereo unspecified) ?
Found: false

Lookup: Per the records of this test, what outcome belongs to O=C(COC(=O)c1cnc(Cl)c(Cl)c1)NCc1ccco1 ?
Found: false

Lookup: Per the records of this test, what outcome belongs to CCOC(=O)CNc1nc2ccccc2n2c(C)nnc12 ?
Found: false

Lookup: Per the records of this test, what outcome belongs to COc1ccc(NS(=O)(=O)c2cc(NC(=O)c3ccc(S(=O)(=O)N(C)C)cc3)ccc2N2CCOCC2)cc1 ?
Found: false

---

- assay comment: qHTS for Inhibitors of human tyrosyl-DNA phosphodiesterase 1 (TDP1): qHTS in cells in absence of CPT; note: nearly all actives have a fitted effect of over 55% in size
- particulars: DT40 Tdp1-/- hTDP1 cells, no CPT, ATP luminescence, 48 h
The whole screen tested about 420,000 compounds, of which about 64,000 (15%) were called active. Not shown: some 27% with an inconclusive outcome. Calls come from the whole dose curve; as a rule, active = well fitted inhibition curve with a large enough effect; inconclusive = small, poorly fitted or top-dose-only effect; inactive = flat fitted curve, though single readings scatter. Not all results are given here.
Your answer must be one of the following: True (active), False (inactive)

Below are worked cases with known answers.
NNC(=O)COc1ccc(C2SCCS2)cc1
False
CC(=O)c1cnn(-c2cc(Oc3ccc(F)cc3)ncn2)c1C
False
Cc1sc2ncn(CC(=O)NCCN(C)C)c(=O)c2c1S(=O)(=O)N1CCC(C)CC1
False

Lookup: Per the records of this test, what outcome belongs to CN(c1ccc(O)cc1)c1nc(-c2cccnc2)cs1 ?
Found: False

Lookup: Per the records of this test, what outcome belongs to COc1ccc(C(=O)NCC(=O)N/N=C/c2ccc([N+](=O)[O-])s2)cc1OC ?
Found: True

Lookup: Per the records of this test, what outcome belongs to O=C(COc1ccccc1[N+](=O)[O-])N/N=C/c1ccc[nH]1 ?
Found: False

Lookup: Per the records of this test, what outcome belongs to O=C(Cc1cc(=O)[nH][nH]1)N/N=C/c1ccccc1[N+](=O)[O-] ?
Found: False

Lookup: Per the records of this test, what outcome belongs to CCc1ccc(S(=O)(=O)Nc2ccc(C)c(NS(C)(=O)=O)c2)cc1 ?
Found: False

Lookup: Per the records of this test, what outcome belongs to O=C(COC(=O)c1ccc(O)cc1)Nc1nccs1 ?
Found: False

Lookup: Per the records of this test, what outcome belongs to O=C(OCC(=O)N1CCCC1)c1ccc(Cl)nc1 ?
Found: False

Lookup: Per the records of this test, what outcome belongs to COc1ccc(-c2csc(Cc3nc(O)cs3)n2)cc1 ?
Found: True

Lookup: Per the records of this test, what outcome belongs to O=C(NCc1cccnc1)C(=O)Nc1nc(-c2ccccc2)cs1 ?
Found: False

Lookup: Per the records of this test, what outcome belongs to CCc1ccc(S(=O)(=O)N/N=C\c2ccc([N+](=O)[O-])o2)cc1 ?
Found: True

Lookup: Per the records of this test, what outcome belongs to COc1ccc(-n2c(SC)nc(O)cc2=O)cc1 ?
Found: False

Lookup: Per the records of this test, what outcome belongs to COc1ccc(Nc2nc(-c3ccccc3)cs2)cc1 ?
Found: False

Lookup: Per the records of this test, what outcome belongs to COc1ccc(OC)c(NC(=O)c2cnn(-c3ccccc3Cl)c2NC(=O)c2ccco2)c1 ?
Found: False

Lookup: Per the records of this test, what outcome belongs to O=C(NCCc1cccc(F)c1)C1CC(O)CN1C(=O)Nc1ccccc1 (stereo not drawn) ?
Found: False

Lookup: Per the records of this test, what outcome belongs to Cc1ccc(NC(=O)Cn2cnc3c(OCc4ccccc4)ncnc32)cc1C ?
Found: False

Lookup: Per the records of this test, what outcome belongs to COc1ccc(/C=N/NS(=O)(=O)c2ccc(NC(C)=O)cc2)cc1 ?
Found: False

Lookup: Per the records of this test, what outcome belongs to CCCCn1c(N)c(N(CCOC)C(=O)c2cccc(S(=O)(=O)N3CCCCC3)c2)c(=O)[nH]c1=O ?
Found: False

Lookup: Per the records of this test, what outcome belongs to COc1cccc(/C=N/NC(=O)CNC(=O)c2ccc(S(=O)(=O)N3CCOCC3)cc2)c1OC ?
Found: False

Lookup: Per the records of this test, what outcome belongs to CC(CNC(=O)Cn1cnc2c(OCc3ccccc3)ncnc21)c1ccccc1 (stereo not drawn) ?
Found: False

Lookup: Per the records of this test, what outcome belongs to CC(C)CCNC(=O)C1CCC(CNc2c(N3CCC(C)CC3)c(=O)c2=O)CC1 (stereo not drawn) ?
Found: False

---

- assay comment: qHTS for Inhibitors of human tyrosyl-DNA phosphodiesterase 1 (TDP1): qHTS in cells in absence of CPT; note: nearly all actives have a fitted effect of over 55% in size; note: potency is the fitted concentration of half-maximal effect
- particulars: DT40 Tdp1-/- hTDP1 cells, no CPT, ATP luminescence, 48 h
Hit rate of the full screen: of about 420,000 compounds, about 64,000 (15%) were called active. About 27% were inconclusive and are not listed. Only a sample is shown.
endpoint: Potency

Some solved cases for reference:
O=C(NCc1ccccc1)[C@H]1C[C@@H]1[C@H](NP(=O)(c1ccccc1)c1ccccc1)c1ccccc1
20.6 µM (active)
CSc1ccc(CN2CCC2(C)C(=O)NCc2ccccc2Br)cc1 (stereo unspecified)
23.1 µM (active)
CSc1ccc(CNC(=O)C2(C)CCCN2C)cc1 (stereo unspecified)
inactive
Cn1c(N)c(C(=O)COC(=O)COc2ccc(Cl)cc2)c(=O)n(C)c1=O
inactive
CCC(=O)N1CCCC1(C)C(=O)Nc1ccc2c(c1)CCN2C(C)=O (stereo unspecified)
inactive
CC1(C(=O)NCc2ccc3c(c2)OCO3)CCN1C(=O)Cc1cccs1 (stereo unspecified)
inactive
CC(=O)c1cccc(NC(=O)[C@@H](NC(N)=O)C(C)C)c1
inactive
COc1ccc(CCNC(=O)COC(=O)c2cnc(Cl)c(Cl)c2)cc1
inactive

Provide Potency for all items below, preserving their order.
1. O=C(NCc1ccccc1)C1CNCC(C(=O)NCc2ccccc2)C1 (stereo unspecified)
2. CC1(C(=O)NCc2ccc3c(c2)OCO3)CCN1CCc1ccccc1 (stereo unspecified)
3. CN(C(=O)CSc1nnc(-c2c[nH]c3ccccc23)o1)C1CCS(=O)(=O)C1 (stereo unspecified)

Found:
inactive
inactive
inactive

---

- assay comment: qHTS for Inhibitors of human tyrosyl-DNA phosphodiesterase 1 (TDP1): qHTS in cells in absence of CPT; note: nearly all actives have a fitted effect of over 55% in size
- particulars: DT40 Tdp1-/- hTDP1 cells, no CPT, ATP luminescence, 48 h
Out of some 420,000 compounds screened, about 64,000 (15%) were called active. Inconclusive results (about 27%) are left out. The call rests on the fitted dose curve; in most records, active means well fitted inhibition curve with a large enough effect; inconclusive means small, poorly fitted or top-dose-only effect; inactive means flat fitted curve, though single readings scatter. A selection follows.
Your answer must be one of the following: TRUE (active), FALSE (inactive)

Below are worked cases with known answers.
COc1ccc(OCCCC(=O)NCCc2ccccc2)cc1
FALSE
CSc1ccccc1C(=O)NCc1ccccc1
FALSE
COc1ccc(CCNCc2c(-c3ccccc3)n(C)c3ccccc23)cc1
TRUE
Cc1ccc(C(=O)N/C(=C/c2cccnc2)C(=O)O)cc1
FALSE
CCC(Sc1nc2n[nH]c(C)c2c(=N)n1-c1ccccc1Cl)C(=O)N(CC)CC (stereo unspecified)
TRUE

# ---- query compound ----
Lookup: Per the records of this test, what outcome belongs to N#CCCC(C#N)(c1cccnc1)N1CCOCC1 (stereo unspecified) ?
Found: FALSE
